All figures here come from the supplement of paper PMC10567573.

B1: PPEF2 (parent)
chain: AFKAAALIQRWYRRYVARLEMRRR

Variants of: B1
Measurement Description: protein stability index of a GFP-peptide fusion (GPS, HEK-293T) (PSI 1-6); higher = more stable;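 also: lentivirally expressed fusions sorted by FACS into six bins by GFP to DsRed ratio, PSI derived from sequencing read proportions per bin multiplied by bin number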
Protocol Conditions: c terminus: a fixed tail appended
Reported Endpoint: protein stability index

variant_annotation=R18P readout_value=2.09
variant_annotation=R23K readout_value=3.58
variant_annotation=R14D readout_value=1.66
variant_annotation=R24C readout_value=1.97
variant_annotation=Q9E readout_value=1.59
variant_annotation=R24M readout_value=2.45
variant_annotation=L7T readout_value=4.39
variant_annotation=V16E readout_value=2.13
variant_annotation=L19H readout_value=3.33
variant_annotation=A17D readout_value=2.33
variant_annotation=Y15D readout_value=1.87
variant_annotation=A4M readout_value=2.25
variant_annotation=I8L readout_value=3.02
variant_annotation=V16S readout_value=4.23
variant_annotation=F2D readout_value=3.53
variant_annotation=Y15M readout_value=5.14
variant_annotation=K3Y readout_value=2.87
variant_annotation=R13N readout_value=1.15
variant_annotation=R10G readout_value=1.88
variant_annotation=R13Q readout_value=2.26
variant_annotation=L7F readout_value=3.21
variant_annotation=R23H readout_value=2.26
